Kindly state Ratio EC50 pH 8/EC50 pH 5 for each of the entries shown.
tested-system: GC-C (Homo sapiens, UniProt P25092)
Sequence (P25092 24-1073 limits assumed): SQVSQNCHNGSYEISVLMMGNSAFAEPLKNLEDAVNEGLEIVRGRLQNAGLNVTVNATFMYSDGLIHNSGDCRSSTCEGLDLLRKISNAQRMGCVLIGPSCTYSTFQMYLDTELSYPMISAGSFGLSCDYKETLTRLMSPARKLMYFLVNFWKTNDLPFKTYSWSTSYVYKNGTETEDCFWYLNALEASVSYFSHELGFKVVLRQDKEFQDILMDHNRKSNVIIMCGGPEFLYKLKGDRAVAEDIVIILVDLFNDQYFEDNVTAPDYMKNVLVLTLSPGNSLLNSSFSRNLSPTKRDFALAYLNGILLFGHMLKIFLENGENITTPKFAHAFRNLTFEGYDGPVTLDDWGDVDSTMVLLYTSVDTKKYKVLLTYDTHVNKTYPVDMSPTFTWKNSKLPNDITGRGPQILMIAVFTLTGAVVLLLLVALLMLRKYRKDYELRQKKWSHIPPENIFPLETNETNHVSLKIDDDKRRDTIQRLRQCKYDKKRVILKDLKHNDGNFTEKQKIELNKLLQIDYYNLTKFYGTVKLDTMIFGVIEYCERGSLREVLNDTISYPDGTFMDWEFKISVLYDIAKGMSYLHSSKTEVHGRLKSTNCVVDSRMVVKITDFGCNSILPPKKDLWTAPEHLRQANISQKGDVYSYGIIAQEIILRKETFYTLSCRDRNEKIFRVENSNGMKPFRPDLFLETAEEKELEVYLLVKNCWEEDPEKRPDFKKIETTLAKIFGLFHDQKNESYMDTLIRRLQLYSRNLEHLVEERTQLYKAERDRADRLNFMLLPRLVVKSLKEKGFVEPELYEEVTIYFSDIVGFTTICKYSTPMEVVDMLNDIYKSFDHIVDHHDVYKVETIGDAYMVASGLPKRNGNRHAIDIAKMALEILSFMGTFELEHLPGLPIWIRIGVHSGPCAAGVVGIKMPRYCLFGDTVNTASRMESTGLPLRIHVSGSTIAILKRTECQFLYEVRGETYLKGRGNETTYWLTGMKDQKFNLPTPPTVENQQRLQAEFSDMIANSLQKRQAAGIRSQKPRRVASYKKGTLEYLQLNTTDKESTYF
Format: cell-based
recorded-conditions: cGMP response in T84 cells
Positions of bridges follow the written chain, without caps; N, C: chain ends. Residues, ends and D or L forms follow the SMILES beside them.

molecule	experimental-readout	assay-result
C[C@@H]1NC(=O)[C@@H]2CCCN2C(=O)[C@H](CC(N)=O)NC(=O)[C@@H]2CSSC[C@H](NC(=O)[C@H](CC(=O)O)NC(=O)[C@H](CC(=O)O)NC(=O)[C@@H](N)CC(=O)O)C(=O)N[C@H]3CSSC[C@H](NC1=O)C(=O)N[C@@H]([C@@H](C)O)C(=O)NCC(=O)N[C@H](C(=O)N[C@@H](Cc1ccc(O)cc1)C(=O)O)CSSC[C@H](NC(=O)[C@H](Cc1ccc(O)cc1)NC(=O)[C@H](CCC(=O)O)NC3=O)C(=O)N2 [Peptide 5, DDDCCEYCCNPACTGCY]	Ratio EC50 pH 8/EC50 pH 5	256

Reported Ratio EC50 pH 8/EC50 pH 5 for GC-C (Homo sapiens, UniProt P25092), given C[C@@H]1NC(=O)[C@@H]2CCCN2C(=O)[C@H](CC(N)=O)NC(=O)[C@@H]2CSSC[C@H](N)C(=O)N[C@H]3CSSC[C@H](NC1=O)C(=O)N[C@@H]([C@@H](C)O)C(=O)NCC(=O)N[C@H](C(=O)N[C@@H](Cc1ccc(O)cc1)C(=O)O)CSSC[C@H](NC(=O)[C@H](Cc1ccccc1)NC(=O)[C@H](CCC(=O)O)NC3=O)C(=O)N2 [Peptide 2, CCEFCCNPACTGCY] (H-CCEFCCNPACTGCY-OH; disulfide 1-6, 2-10, 5-13) ?
13.2

Source listed as patent US8735360B2.
